Assign pIC50 to each entry below.
molecular target: Integrin alpha-V/beta-6 (Homo sapiens, UniProt P06756+P18564); assay: Inhibition of recombinant human alphavbeta6 integrin incubated for 2 hrs by microplate reader assay; format: protein-complex assay
Sequence (P06756 31-889 limits assumed): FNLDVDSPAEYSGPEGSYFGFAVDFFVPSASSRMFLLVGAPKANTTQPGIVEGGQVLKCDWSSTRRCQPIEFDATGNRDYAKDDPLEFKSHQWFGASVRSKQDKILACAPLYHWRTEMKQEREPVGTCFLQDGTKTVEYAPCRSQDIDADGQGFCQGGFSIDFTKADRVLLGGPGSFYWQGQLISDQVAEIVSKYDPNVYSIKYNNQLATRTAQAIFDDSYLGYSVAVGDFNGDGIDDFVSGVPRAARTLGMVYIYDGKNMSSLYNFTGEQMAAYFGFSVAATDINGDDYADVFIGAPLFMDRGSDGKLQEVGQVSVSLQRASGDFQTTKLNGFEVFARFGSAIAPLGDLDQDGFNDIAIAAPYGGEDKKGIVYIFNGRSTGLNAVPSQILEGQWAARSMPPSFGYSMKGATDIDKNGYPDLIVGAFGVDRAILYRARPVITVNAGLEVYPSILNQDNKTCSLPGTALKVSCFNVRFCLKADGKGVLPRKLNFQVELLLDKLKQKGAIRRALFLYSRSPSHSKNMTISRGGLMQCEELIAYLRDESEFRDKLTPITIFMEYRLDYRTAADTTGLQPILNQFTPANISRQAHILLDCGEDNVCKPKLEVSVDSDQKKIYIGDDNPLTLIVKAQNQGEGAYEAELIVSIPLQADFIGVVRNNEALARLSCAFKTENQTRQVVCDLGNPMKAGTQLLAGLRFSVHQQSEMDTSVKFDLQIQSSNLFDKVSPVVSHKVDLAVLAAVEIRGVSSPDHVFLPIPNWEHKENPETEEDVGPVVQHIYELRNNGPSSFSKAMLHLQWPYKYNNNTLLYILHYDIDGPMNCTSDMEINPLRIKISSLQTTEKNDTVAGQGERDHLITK
Sequence (P06756 891-1048 limits assumed): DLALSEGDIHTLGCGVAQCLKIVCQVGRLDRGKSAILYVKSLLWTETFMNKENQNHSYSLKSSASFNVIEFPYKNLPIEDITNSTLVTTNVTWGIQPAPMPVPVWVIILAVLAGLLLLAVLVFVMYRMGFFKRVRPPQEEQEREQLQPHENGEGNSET
Sequence (P18564 22-788 limits assumed): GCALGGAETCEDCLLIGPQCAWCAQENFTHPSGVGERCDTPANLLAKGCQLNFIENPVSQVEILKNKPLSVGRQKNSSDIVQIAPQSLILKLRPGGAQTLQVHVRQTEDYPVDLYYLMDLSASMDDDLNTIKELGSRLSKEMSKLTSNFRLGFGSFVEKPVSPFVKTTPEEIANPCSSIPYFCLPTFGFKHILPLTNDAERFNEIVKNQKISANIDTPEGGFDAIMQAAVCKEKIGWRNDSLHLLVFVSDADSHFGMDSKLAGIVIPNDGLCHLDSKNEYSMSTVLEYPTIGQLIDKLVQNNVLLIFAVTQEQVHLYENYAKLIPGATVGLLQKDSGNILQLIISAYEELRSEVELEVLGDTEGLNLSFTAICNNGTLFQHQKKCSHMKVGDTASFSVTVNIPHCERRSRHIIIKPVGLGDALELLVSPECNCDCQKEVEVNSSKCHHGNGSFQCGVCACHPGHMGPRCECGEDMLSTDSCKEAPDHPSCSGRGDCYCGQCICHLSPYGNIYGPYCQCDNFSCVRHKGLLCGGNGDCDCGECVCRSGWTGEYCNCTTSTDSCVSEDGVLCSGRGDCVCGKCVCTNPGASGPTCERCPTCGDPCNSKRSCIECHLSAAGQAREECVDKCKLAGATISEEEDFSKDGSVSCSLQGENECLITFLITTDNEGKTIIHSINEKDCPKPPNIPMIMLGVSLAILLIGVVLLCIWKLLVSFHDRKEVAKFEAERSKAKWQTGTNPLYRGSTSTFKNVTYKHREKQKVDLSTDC
pIC50: −log10 of the molar value.

Query: So what does the record say about pIC50 for COCCN(CCCCc1ccc2c(n1)NCCC2)CC[C@H](Nc1ncnc2cc(C(F)(F)F)ccc12)C(=O)O ?
Result: 7.30

Query: So what does the record say about pIC50 for COCCN(CCCCc1ccc2c(n1)NCCC2)CC[C@H](Nc1ncnc2ccccc12)C(=O)O [BEXOTEGRAST] ?
Result: > 7.30

Query: So what does the record say about pIC50 for O=C(O)[C@H](CCN(CCCCc1ccc2c(n1)NCCC2)CCC(F)F)Nc1ncnc2ccccc12 ?
Result: > 7.30

Query: So what does the record say about pIC50 for CO[C@H](C)CN(CCCCc1ccc2c(n1)NCCC2)CC[C@H](Nc1ncnc2ccccc12)C(=O)O ?
Result: > 7.30

Query: So what does the record say about pIC50 for COCCN(CCCCc1ccc2c(n1)NCCC2)CC[C@H](Nc1cc(-n2cccn2)ncn1)C(=O)O ?
Result: > 7.30

Query: So what does the record say about pIC50 for COCCN(CCCCc1ccc2c(n1)NCCC2)CC[C@H](Nc1ncnc2cc(F)ccc12)C(=O)O ?
Result: > 7.30
